Test system: EKVX
Test: NCI tumour cell line growth inhibition, 48 h
Active and inactive are the calls of the source. No stated cut-off is given here; in the data, active = GI50 up to about 1.1 µM and inactive = higher.
Readout Kind: GI50

compound=CCCCN(CCCC)C(=Nc1ccccc1)N(CCCC)CCCC assay_system=EKVX obs_value="4.35 µM (inactive)"
compound=C1=C[C@]2(CCC13OCCO3)COc1ccccc12 assay_system=EKVX obs_value="66.1 µM (inactive)"
compound=CCOC(=O)c1c(CN2CCNCC2)nc2ccc(Cl)cc2c1-c1ccccc1 assay_system=EKVX obs_value="9.38 µM (inactive)"
compound=COc1cc(OC)c2c(O)c3c(cc2c1)CC(C)(C)CC3=O assay_system=EKVX obs_value="> 100 µM (inactive)"
compound=O=C(/C=C/c1ccc(O)c(O)c1)Oc1ccccc1 assay_system=EKVX obs_value="18.6 µM (inactive)"
compound=CN(C)c1ccc(/C=N/c2ccc(-c3nc4ccccc4[nH]3)cc2)cc1 assay_system=EKVX obs_value="> 100 µM (inactive)"
compound=Clc1nc(Cl)nc(NC23CC4CC(CC(C4)C2)C3)n1 assay_system=EKVX obs_value="19.5 µM (inactive)"
compound=COc1ccc(/C=C(/c2ccccc2)c2c(C)cc(C)c(/C(=C\c3ccc(OC)cc3)c3ccccc3)c2/N=N/c2cc(C)cc(C)c2)cc1 assay_system=EKVX obs_value="30 µM (inactive)"
compound="COC(=O)C1=C(C[S+]([O-])c2ccc([N+](=O)[O-])cc2[N+](=O)[O-])C2C=CC1C2 (stereo not given)" assay_system=EKVX obs_value="23.6 µM (inactive)"

Could you now look at the following compound, please?
Can you look up GI50 on EKVX for CC(=O)NNc1nc(C)c(C(=O)NNC(=O)C(=O)Nc2c(C)cccc2C)s1 ?
37 µM (inactive)

====

System: SNB-78
Test: NCI tumour cell line growth inhibition, 48 h
Active and inactive are the calls of the source. Rule as the data show it: active = GI50 up to about 1.1 µM and inactive = higher.
Consider the following molecules and their measured GI50 readings.

Below, each entry is followed by its recorded GI50 result.
molecule="CCN(CC)CC(C(=O)Nc1c(C)cccc1C)/C(C)=N\\NC(=O)c1ccncc1 (stereo not given)" readout_kind=GI50 obs_value="> 100 µM (inactive)"
molecule=Cc1ccc(C(=O)N2CCN(C(=O)c3ccc(C)cc3)c3ccccc32)cc1 readout_kind=GI50 obs_value="6.97 µM (inactive)"
molecule="N#CC(C(=O)CCC(=O)Nc1ccc(Cl)c(Cl)c1)c1ccc(Cl)cc1 (stereo not given)" readout_kind=GI50 obs_value="> 100 µM (inactive)"

Here is the next item to consider.
Fill in the recorded GI50 for this molecule, with SNB-78 as test system: N#C/C(=C1\SCC(=O)N1c1ccccc1)c1nc2ccccc2[nH]1
> 100 µM (inactive)

====

Tested on: KM-20L2
Assay: NCI tumour cell line growth inhibition, 48 h
The source made the active and inactive calls. Cut-off read from the data, not from the text of the source: active = GI50 up to about 1.1 µM and inactive = higher.
Readout Kind: GI50

For orientation, consider the following solved cases.
compound=CCOC(=O)c1c(CN2CCNCC2)nc2ccc(Cl)cc2c1-c1ccccc1 obs_value="2.64 µM (inactive)"
compound="O=C(CC1(O)C(=O)Nc2ccccc21)c1ccc(Cl)cc1Cl (stereo not given)" obs_value="> 100 µM (inactive)"
compound=CC(=O)Nc1ccc(-c2nnc(SCC(=O)Nc3cccc(Cl)c3)o2)cc1 obs_value="15.3 µM (inactive)"
compound="C[C@]12CC[C@@H]3c4ccc(O)cc4CC[C@H]3[C@@H]1CC[C@@H]2OC(=O)CCC1CCCC1 [ESTRADIOL CYPIONATE]" obs_value="17.7 µM (inactive)"
compound="O=C1C2C=CC(n3[nH]c(=O)n(Cc4ccccc4)c3=O)CC2C(=O)N1c1ccc(Br)cc1 (stereo not given)" obs_value="> 100 µM (inactive)"
compound="COC(=O)CC1C(=O)OCc2c1cc1n(c2=O)Cc2c-1nc1ccccc1c2OC (stereo not given)" obs_value="> 100 µM (inactive)"
compound=CCOC(=O)CC(=O)Sc1ccccc1 obs_value="21.2 µM (inactive)"
compound=Cc1cc(C)nc(NS(=O)(=O)c2ccc(NC(=O)c3cccn4c(=O)c5ccccc5nc34)cc2)n1 obs_value="> 100 µM (inactive)"

Find GI50 (KM-20L2) for the entry COC(=O)CC(=O)OC
> 100 µM (inactive)

Same lookup for Cc1ccc(S(=O)(=O)N/N=C2\CCCCC23CCC(=O)NC3)cc1 (stereo not given) , please.
> 100 µM (inactive)
